test-system: DN-IV quality control recombinant protein (produced by the company) (dengue virus)
protocol-details: BLI, antibody on AMC sensor
Quick reference: pKd of the listed items.
Quick note: pKd values are minus log10 of concentrations in mol/L.

Prompt: Recorded pKd of Mutation 1-38 (antibody, V domains shown) VH: EVQLQQPGPELVKPGASVKMSCKASGYTFTSYVIHWVRQKPGQGLEWIGYMNPYNDGLKYNEKFIGKAILTSDKSSSTAYMQLSSLTSEDSAVYYCTKEGLFYVMDYWGQGTSVTVSS VL: QIVLTQSPAIMSASPGEKVTMTCSATSSISYMHWYQQKSGTSPKRWIYDSSKLASGVPVRFSGSGSGTSYSLTISSMEAEDAATYFCQWWRSDLPTFGAGTKLELKR , please.
Completion: 9.19

Prompt: // same read-out, input: Mutation 1-22 (antibody, V domains shown) VH: EVQLQQPGPELVKPGASVKMSCKASGYTFTSSVIHWVRQKPGQGLEWIGYMNPYNDGLKYNEKFIGKAILTSDKSSSTAYMQLSSLTSEDSAVYYCTREGLFYVFDYWGQGTSVTVSS VL: QIVLTQSPAIMSASPGEKVTMTCSATSSVSYMHWYQQKSGTSPKRWIYDSSKLASGVPVRFSGSGSGTSYSLTISSMEAEDAATYFCQWWRSDLPTFGAGTKLELKR
Completion: 9.23
